Study target: CDK4 (Homo sapiens, UniProt P11802+Q16531)
Sequence (P11802 2-303 limits assumed): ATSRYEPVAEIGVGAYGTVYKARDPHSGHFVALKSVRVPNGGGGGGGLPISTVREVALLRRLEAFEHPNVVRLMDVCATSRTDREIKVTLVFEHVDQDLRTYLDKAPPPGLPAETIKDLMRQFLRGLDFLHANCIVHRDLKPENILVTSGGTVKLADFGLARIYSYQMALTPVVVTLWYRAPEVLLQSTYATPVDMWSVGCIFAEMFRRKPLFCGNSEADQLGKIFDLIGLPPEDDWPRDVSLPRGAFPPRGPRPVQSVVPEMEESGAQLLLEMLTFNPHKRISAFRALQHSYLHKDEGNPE
Sequence (P24385 whole entry partner): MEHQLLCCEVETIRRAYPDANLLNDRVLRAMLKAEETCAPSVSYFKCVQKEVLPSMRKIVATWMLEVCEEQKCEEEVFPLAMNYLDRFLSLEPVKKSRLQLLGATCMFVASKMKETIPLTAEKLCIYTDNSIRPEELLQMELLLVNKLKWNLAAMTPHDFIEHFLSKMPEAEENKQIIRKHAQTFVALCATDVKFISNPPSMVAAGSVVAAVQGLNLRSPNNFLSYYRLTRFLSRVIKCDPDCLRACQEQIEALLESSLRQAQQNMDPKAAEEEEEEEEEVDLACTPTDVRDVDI
Sequence (Q16531 2-1140 limits assumed): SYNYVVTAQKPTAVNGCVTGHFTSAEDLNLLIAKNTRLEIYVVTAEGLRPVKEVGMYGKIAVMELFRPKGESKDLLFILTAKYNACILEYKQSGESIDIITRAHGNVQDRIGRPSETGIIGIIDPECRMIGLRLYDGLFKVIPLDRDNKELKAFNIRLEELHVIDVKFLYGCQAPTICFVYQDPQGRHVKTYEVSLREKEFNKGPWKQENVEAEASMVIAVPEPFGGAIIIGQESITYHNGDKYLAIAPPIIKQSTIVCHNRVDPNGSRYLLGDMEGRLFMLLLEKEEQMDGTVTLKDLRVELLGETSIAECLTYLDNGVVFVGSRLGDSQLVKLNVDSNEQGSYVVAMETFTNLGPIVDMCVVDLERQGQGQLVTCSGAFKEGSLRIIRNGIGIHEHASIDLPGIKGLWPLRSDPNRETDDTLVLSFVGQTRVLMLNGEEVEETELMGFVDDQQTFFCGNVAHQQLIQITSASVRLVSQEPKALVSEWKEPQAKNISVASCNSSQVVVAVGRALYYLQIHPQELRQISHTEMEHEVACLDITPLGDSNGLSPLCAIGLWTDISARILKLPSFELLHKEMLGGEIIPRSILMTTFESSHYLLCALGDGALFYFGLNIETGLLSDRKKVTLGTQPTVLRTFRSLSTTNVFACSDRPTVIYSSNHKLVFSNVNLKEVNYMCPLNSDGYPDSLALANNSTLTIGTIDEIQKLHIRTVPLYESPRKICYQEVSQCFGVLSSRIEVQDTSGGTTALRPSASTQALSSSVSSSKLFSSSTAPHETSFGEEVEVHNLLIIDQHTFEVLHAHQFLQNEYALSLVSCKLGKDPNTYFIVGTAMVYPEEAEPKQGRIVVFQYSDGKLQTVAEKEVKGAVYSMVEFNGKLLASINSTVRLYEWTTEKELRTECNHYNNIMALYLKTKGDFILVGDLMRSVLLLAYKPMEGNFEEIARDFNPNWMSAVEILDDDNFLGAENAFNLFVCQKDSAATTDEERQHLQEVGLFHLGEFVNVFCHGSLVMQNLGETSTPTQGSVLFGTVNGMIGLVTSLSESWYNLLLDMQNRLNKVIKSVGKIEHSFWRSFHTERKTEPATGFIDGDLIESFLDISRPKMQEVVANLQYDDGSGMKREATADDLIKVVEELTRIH
Assay explanation: CDK4 percentage degradation in Calu-1 cells (Table 6)
Type: cell-based
Design: Cells that express cyclin D1-3 and CDK4/6 proteins were treated with heterobifunctional compounds; endogenous in cells; host or cells: Calu-1
Reported conditions: 40 nM, 16 hours
Endpoint name: inhibition at 0.04 µM

{"Compound": "[2H]C([2H])([2H])Nc1ccc(C(=O)Nc2cc(C)n(C)n2)c(NC2CC3(CC(NC(=O)CN4CCN(c5ccc(Nc6ncc7c(C)c(C(C)=O)c(=O)n(C8CCCC8)c7n6)nc5)CC4)C3)C2)n1 (centres unmarked)", "Recorded measurement": "30 to 50%"}
{"Compound": "CNc1ccc(C(=O)Nc2ccc3c(ccn3C)n2)c(NCCCCCNC(=O)CN2CCN(c3ccc(Nc4ncc5c(C)c(C(C)=O)c(=O)n(C6CCCC6)c5n4)nc3)CC2)n1", "Recorded measurement": "50 to 80%"}
{"Compound": "CNc1ccc(C(=O)Nc2ccc(N(C)C)nn2)c(NCCCCC(C)NC(=O)CN2CCN(c3ccc(Nc4ncc5c(C)c(C(C)=O)c(=O)n(C6CCCC6)c5n4)nc3)CC2)n1 (centres unmarked)", "Recorded measurement": "> 80%"}
{"Compound": "CNc1ccc(C(=O)Nc2ccc(F)c(C3CC3)n2)c(NCCCCCNC(=O)CN2CCN(c3ccc(Nc4ncc5c(C)c(C(C)=O)c(=O)n(C6CCCC6)c5n4)nc3)CC2)n1", "Recorded measurement": "30 to 50%"}
{"Compound": "CNc1ccc(C(=O)Nc2ccc(C)c(C3CC3)n2)c(NCCCCCNC(=O)CN2CCN(c3ccc(Nc4ncc5c(C)c(C(C)=O)c(=O)n(C6CCCC6)c5n4)nc3)CC2)n1", "Recorded measurement": "50 to 80%"}
{"Compound": "CNc1ccc(C(=O)Nc2ccc3c(cnn3C)n2)c(NCCCCCNC(=O)CN2CCN(c3ccc(Nc4ncc5c(C)c(C(C)=O)c(=O)n(C6CCCC6)c5n4)nc3)CC2)n1", "Recorded measurement": "< 30%"}
{"Compound": "CC(=O)c1c(C)c2cnc(Nc3ccc(N4CCN(CC(=O)NCC5CC(Nc6nc(C)ccc6C(=O)Nc6cc(C)n(C)n6)C5)CC4)cn3)nc2n(C2CCCC2)c1=O (centres unmarked)", "Recorded measurement": "30 to 50%"}
{"Compound": "CNc1ccc(C(=O)Nc2ccc(N(C)C)nn2)c(NC2CC(NC(=O)N3CCN(c4ccc(Nc5ncc6c(C)c(C(C)=O)c(=O)n(C7CCCC7)c6n5)nc4)CC3)C2)n1 (centres unmarked)", "Recorded measurement": "50 to 80%"}
{"Compound": "CCc1ccc(C(=O)Nc2cccc(C3CC3)n2)c(NC2CC3(CC(NC(=O)CN4CCN(c5ccc(Nc6ncc7c(C)c(C(C)=O)c(=O)n(C8CCCC8)c7n6)nc5)CC4)C3)C2)n1 (centres unmarked)", "Recorded measurement": "30 to 50%"}
{"Compound": "CNc1ccc(C(=O)Nc2ccc(N(C)C)nn2)c(N(C)CCCCCNC(=O)CN2CCN(c3ccc(Nc4ncc5c(C)c(C(C)=O)c(=O)n(C6CCCC6)c5n4)nc3)CC2)n1", "Recorded measurement": "< 30%"}
{"Compound": "CNc1ccc(C(=O)Nc2ccc(N(C)C)nn2)c(NCCCCCCCNC(=O)CN2CCN(c3ccc(N(C)c4ncc5c(C)c(C(C)=O)c(=O)n(C6CCCC6)c5n4)nc3)CC2)n1", "Recorded measurement": "< 30%"}

* * *

Study target: CDK4 (Homo sapiens, UniProt P11802+Q16531)
Assay explanation: CDK4 percentage degradation in Calu-1 cells (Table 6)
Type: cell-based
Design: Cells that express cyclin D1-3 and CDK4/6 proteins were treated with heterobifunctional compounds; endogenous in cells; host or cells: Calu-1
Reported conditions: 200 nM, 16 hours
Entries and their inhibition at 0.2 µM values follow.

{"Compound": "CNc1ccc(C(=O)Nc2ccc(N(C)C)nn2)c(NC2CN(C(=O)CCN3CCN(c4ccc(Nc5ncc6c(C)c(C(C)=O)c(=O)n(C7CCCC7)c6n5)nc4)CC3)C2)n1 [CPD-186]", "inhibition at 0.2 µM": "50 to 80%"}
{"Compound": "CC(=O)c1c(C)c2cnc(Nc3ccc(N4CCN(C(C)CC(=O)N5CCC(Nc6nc(NC(C)C)ccc6C(=O)Nc6ccc(N(C)C)nn6)CC5)CC4)cn3)nc2n(C2CCCC2)c1=O (stereo not drawn) [CPD-359]", "inhibition at 0.2 µM": "< 30%"}
{"Compound": "CC(=O)c1c(C)c2cnc(Nc3ccc(N4CCN(CC(=O)NC5CC6(C5)CC(Nc5nc(C)ccc5C(=O)Nc5cn(C)c(C7CC7)n5)C6)CC4)cn3)nc2n(C2CCCC2)c1=O (stereo not drawn) [CPD-207]", "inhibition at 0.2 µM": "50 to 80%"}
{"Compound": "CNc1ccc(C(=O)Nc2ccc(N(C)C)nn2)c(NC2CC3(CC(NC(=O)C(C)(C)N4CCN(c5ccc(Nc6ncc7c(C)c(C(C)=O)c(=O)n(C8CCCC8)c7n6)nc5)CC4)C3)C2)n1 (stereo not drawn) [CPD-174]", "inhibition at 0.2 µM": "> 80%"}
{"Compound": "CC(=O)c1c(C)c2cnc(Nc3ccc(N4CCN(CC(=O)NC5CC6(C5)CC(Nc5nc(C#N)ccc5C(=O)Nc5cccc(C7CC7)n5)C6)CC4)cn3)nc2n(C2CCCC2)c1=O (stereo not drawn) [CPD-141]", "inhibition at 0.2 µM": "< 30%"}
{"Compound": "CNc1ccc(C(=O)Nc2ccc(N(C)C)nn2)c(NCCCC2CN(C(=O)CN3CCN(c4ccc(Nc5ncc6c(C)c(C(C)=O)c(=O)n(C7CCCC7)c6n5)nc4)CC3)C2)n1 [CPD-102]", "inhibition at 0.2 µM": "50 to 80%"}
{"Compound": "CNc1ccc(C(=O)Nc2cc(C)n(C)n2)c(NC2CC3(CC(NC(=O)CN4CCN(c5ccc(Nc6ncc7c(C)c(C(C)=O)c(=O)n(C8CCCC8)c7n6)nc5)CC4)C3)C2)n1 (stereo not drawn) [CPD-70]", "inhibition at 0.2 µM": "50 to 80%"}
{"Compound": "CNc1ccc(C(=O)Nc2ccc(N(C)C)nn2)c(NC2CC3(CC(NCCN4CCN(c5ccc(Nc6ncc7c(C)c(C(C)=O)c(=O)n(C8CCCC8)c7n6)nc5)CC4)C3)C2)n1 (stereo not drawn) [CPD-96]", "inhibition at 0.2 µM": "< 30%"}
{"Compound": "CNc1ccc(C(=O)Nc2cn(C)c(C3CC3)n2)c(NC2CC3(CC(NC(=O)CN4CCN(c5ccc(Nc6ncc7c(C)c(C(C)=O)c(=O)n(C8CCCC8)c7n6)nc5)CC4)C3)C2)n1 (stereo not drawn) [CPD-135]", "inhibition at 0.2 µM": "50 to 80%"}
{"Compound": "CC(=O)c1c(C)c2cnc(Nc3ccc(N4CCN(CC(=O)NC5CC6(C5)CC(Nc5nc(C7CC7)ccc5C(=O)Nc5cccc(C7CC7)n5)C6)CC4)cn3)nc2n(C2CCCC2)c1=O (stereo not drawn) [CPD-138]", "inhibition at 0.2 µM": "30 to 50%"}
{"Compound": "CNc1ccc(C(=O)Nc2ccc(C)c(=O)[nH]2)c(NCCCCCNC(=O)CN2CCN(c3ccc(Nc4ncc5c(C)c(C(C)=O)c(=O)n(C6CCCC6)c5n4)nc3)CC2)n1 [CPD-123]", "inhibition at 0.2 µM": "50 to 80%"}
{"Compound": "CC(=O)c1c(C)c2cnc(Nc3ccc(N4CCN(C5CCN(C(=O)C6CC(Nc7nc(NC(C)C)ccc7C(=O)Nc7ccc(N(C)C)nn7)C6)C5)CC4)cn3)nc2n(C2CCCC2)c1=O (stereo not drawn) [CPD-402]", "inhibition at 0.2 µM": "< 30%"}
{"Compound": "CNc1ccc(C(=O)Nc2ccc(F)c(C)n2)c(NC2CC3(CC(NC(=O)CN4CCN(c5ccc(Nc6ncc7c(C)c(C(C)=O)c(=O)n(C8CCCC8)c7n6)nc5)CC4)C3)C2)n1 (stereo not drawn) [CPD-221]", "inhibition at 0.2 µM": "50 to 80%"}
{"Compound": "CNc1ccc(C(=O)Nc2ccc(N(C)C)nn2)c(NC[C@H]2CC[C@H](NC(=O)CN3CCN(c4ccc(Nc5ncc6c(C)c(C(C)=O)c(=O)n(C7CCCC7)c6n5)nc4)CC3)CC2)n1 [CPD-73]", "inhibition at 0.2 µM": "50 to 80%"}
{"Compound": "CCc1ccc(C(=O)Nc2cccc(C3CC3)n2)c(NC2CC3(CC(NC(=O)CN4CCN(c5ccc(Nc6ncc7c(C)c(C(C)=O)c(=O)n(C8CCCC8)c7n6)nc5)CC4)C3)C2)n1 (stereo not drawn) [CPD-124]", "inhibition at 0.2 µM": "30 to 50%"}
{"Compound": "CNc1ccc(C(=O)Nc2cc(C)n(C)n2)c(NC2CC(CNC(=O)CN3CCN(c4ccc(Nc5ncc6c(C)c(C(C)=O)c(=O)n(C7CCCC7)c6n5)nc4)CC3)C2)n1 (stereo not drawn) [CPD-165]", "inhibition at 0.2 µM": "> 80%"}
{"Compound": "CNc1ccc(C(=O)Nc2ccnn2C)c(NC2CC3(CC(NC(=O)CN4CCN(c5ccc(Nc6ncc7c(C)c(C(C)=O)c(=O)n(C8CCCC8)c7n6)nc5)CC4)C3)C2)n1 (stereo not drawn) [CPD-153]", "inhibition at 0.2 µM": "< 30%"}
{"Compound": "[2H]C([2H])([2H])Nc1ccc(C(=O)Nc2cc(C)n(C)n2)c(NC2CC(CNC(=O)CN3CCN(c4ccc(Nc5ncc6c(C)c(C(C)=O)c(=O)n(C7CCCC7)c6n5)nc4)CC3)C2)n1 (stereo not drawn) [CPD-206]", "inhibition at 0.2 µM": "50 to 80%"}
{"Compound": "CNc1ccc(C(=O)Nc2ccc(C3CC3)nc2)c(NC2CC3(CC(NC(=O)CN4CCN(c5ccc(Nc6ncc7c(C)c(C(C)=O)c(=O)n(C8CCCC8)c7n6)nc5)CC4)C3)C2)n1 (stereo not drawn) [CPD-74]", "inhibition at 0.2 µM": "< 30%"}
{"Compound": "CC(=O)c1c(C)c2cnc(Nc3ccc(N4CCN(CC(=O)NCCC5CC(Nc6cc(F)ccc6C(=O)Nc6ccc(N(C)C)nn6)C5)CC4)cn3)nc2n(C2CCCC2)c1=O (stereo not drawn) [CPD-258]", "inhibition at 0.2 µM": "50 to 80%"}
{"Compound": "CC(=O)c1c(C)c2cnc(Nc3ccc(CN4CCN(CC(=O)N5CCC(Nc6nc(NC(C)C)ccc6C(=O)Nc6ccc(N(C)C)nn6)CC5)CC4)cn3)nc2n(C2CCCC2)c1=O [CPD-358]", "inhibition at 0.2 µM": "< 30%"}
